- assay.info: Liver microsomal stability (extraction ratio)
- Type: in vitro ADME, mouse, rat, and human
- particulars: test compound 1 μM, 0.5 mg/mL liver microsomes, NADPH 1 mM, 37° C.; ER = predicted hepatic clearance / species blood flow; species not given
measurement.type: Extraction Ratio @ 1 μM

{"columns": ["given.smiles", "value.measured"],
 "data": [
  ["Fc1cncc(Cn2ncc3ncc(-c4ccc(F)c(C(F)F)c4)cc32)c1", 0.57],
  ["Cc1nnc(Cn2ncc3ncc(-c4ccc(F)c(C(F)F)c4)cc32)o1", 0.31],
  ["Fc1ccc(-c2cnc3cnn(Cc4cncnc4)c3c2)cc1C(F)F", 0.36],
  ["Cc1nc(Cn2ncc3ncc(-c4ccc(F)c(C(F)F)c4)cc32)no1", 0.42],
  ["Cc1nnc(Cn2ncc3ncc(-c4ccc(F)c(C(F)F)c4)cc32)s1", 0.60]
]}

---

Parameter: pIC50. Scope: all listed entries.
- experimental.system: human GluN1/GluN2B NMDA receptors (Homo sapiens, UniProt Q13224)
- Sequence (Q13224 27-1484, other chains not shown): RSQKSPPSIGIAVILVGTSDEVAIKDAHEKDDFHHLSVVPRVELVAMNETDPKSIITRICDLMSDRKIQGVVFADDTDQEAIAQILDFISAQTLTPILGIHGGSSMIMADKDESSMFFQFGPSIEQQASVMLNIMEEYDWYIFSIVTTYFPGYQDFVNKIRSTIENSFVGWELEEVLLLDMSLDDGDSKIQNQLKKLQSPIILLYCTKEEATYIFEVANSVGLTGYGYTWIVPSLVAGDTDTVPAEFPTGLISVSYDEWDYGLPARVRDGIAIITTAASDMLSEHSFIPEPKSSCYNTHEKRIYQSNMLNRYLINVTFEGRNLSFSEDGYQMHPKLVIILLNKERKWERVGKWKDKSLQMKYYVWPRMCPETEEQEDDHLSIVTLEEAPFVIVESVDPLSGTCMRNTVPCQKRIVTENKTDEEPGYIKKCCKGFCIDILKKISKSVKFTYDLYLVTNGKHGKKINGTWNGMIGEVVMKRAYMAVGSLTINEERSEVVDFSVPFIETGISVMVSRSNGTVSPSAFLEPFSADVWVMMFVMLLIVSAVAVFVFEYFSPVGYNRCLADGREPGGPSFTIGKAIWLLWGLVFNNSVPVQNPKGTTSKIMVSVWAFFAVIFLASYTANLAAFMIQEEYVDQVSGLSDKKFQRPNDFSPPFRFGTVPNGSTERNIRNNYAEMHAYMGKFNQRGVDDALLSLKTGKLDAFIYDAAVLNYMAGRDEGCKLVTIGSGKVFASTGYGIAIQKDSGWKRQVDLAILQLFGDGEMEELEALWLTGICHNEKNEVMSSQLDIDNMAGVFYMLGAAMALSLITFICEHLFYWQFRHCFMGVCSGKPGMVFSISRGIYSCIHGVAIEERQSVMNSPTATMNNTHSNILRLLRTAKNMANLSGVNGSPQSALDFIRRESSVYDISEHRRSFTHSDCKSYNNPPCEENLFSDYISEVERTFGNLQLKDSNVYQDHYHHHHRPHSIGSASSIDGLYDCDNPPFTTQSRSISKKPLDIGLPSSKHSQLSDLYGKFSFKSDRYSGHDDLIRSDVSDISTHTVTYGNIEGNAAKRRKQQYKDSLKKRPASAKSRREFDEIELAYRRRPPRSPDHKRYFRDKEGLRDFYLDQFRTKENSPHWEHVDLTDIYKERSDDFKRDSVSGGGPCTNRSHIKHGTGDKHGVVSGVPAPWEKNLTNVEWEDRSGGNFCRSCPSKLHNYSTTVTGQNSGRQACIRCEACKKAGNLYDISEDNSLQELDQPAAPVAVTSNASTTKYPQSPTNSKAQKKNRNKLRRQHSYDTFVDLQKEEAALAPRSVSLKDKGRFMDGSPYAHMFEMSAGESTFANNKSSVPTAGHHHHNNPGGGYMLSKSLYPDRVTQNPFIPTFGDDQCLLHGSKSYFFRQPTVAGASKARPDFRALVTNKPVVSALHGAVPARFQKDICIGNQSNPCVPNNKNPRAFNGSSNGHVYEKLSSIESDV
- assay.info: Calcium flux (FLIPR) assay on cloned human NR1/GluN2B ion channels expressed in mammalian cells (standard and HTS variants)
- particulars: cells expressing human GluN1/GluN2B, glutamate and glycine co-agonists
pIC50: −log10 of the molar value. Where a name gives a salt, the structure may show the parent alone.

{"columns": ["molecule", "experimental.system", "comparison.operator", "pIC50"],
 "data": [
  ["N#Cc1cncc(Cn2ncc3ncc(-c4ccc(C(F)(F)F)s4)cc32)c1 [Example 144]", "human GluN1/GluN2B NMDA receptors (Homo sapiens, UniProt Q13224)", "=", 6.24],
  ["Cc1nc(Cn2ncc3ncc(-c4ccc(F)c(C(F)F)c4)cc32)co1 [Example 55]", "human GluN1/GluN2B NMDA receptors (Homo sapiens, UniProt Q13224)", "=", 6.55],
  ["FC(F)Oc1cc(-c2cnc3cnn(Cc4cn[nH]c4)c3c2)ccc1Cl [Example 41]", "human GluN1/GluN2B NMDA receptors (Homo sapiens, UniProt Q13224)", "=", 6.37],
  ["Cc1nnc(Cn2nc(F)c3ncc(-c4ccc(F)c(C(F)F)c4)cc32)s1 [Example 123]", "human GluN1/GluN2B NMDA receptors (Homo sapiens, UniProt Q13224)", "=", 7.38],
  ["Cc1nccc(Cn2ncc3ncc(-c4cccc(C(F)(F)F)c4)cc32)n1 [Example 283]", "human GluN1/GluN2B NMDA receptors (Homo sapiens, UniProt Q13224)", "=", 5.49],
  ["Fc1cccc(Cn2ncc3ncc(-c4cccc(C(F)(F)F)c4)cc32)c1 [Example 22, hydrochloride salt]", "human GluN1/GluN2B NMDA receptors (Homo sapiens, UniProt Q13224)", "=", 5.74],
  ["Cc1ccncc1Cn1ncc2ncc(-c3ccc(F)c(F)c3)cc21 [Example 190, trifluoroacetate salt]", "human GluN1/GluN2B NMDA receptors (Homo sapiens, UniProt Q13224)", "=", 6.80],
  ["Cc1cc(Cn2ncc3ncc(-c4ccc(F)c(OC(F)F)c4)cc32)no1 [Example 59]", "human GluN1/GluN2B NMDA receptors (Homo sapiens, UniProt Q13224)", "=", 7.21],
  ["COc1cccc(Cn2ncc3ncc(-c4ccc(F)c(C(F)F)c4)cc32)n1 [Example 205]", "human GluN1/GluN2B NMDA receptors (Homo sapiens, UniProt Q13224)", "=", 6.75],
  ["Cc1cnc(Cn2ncc3ncc(-c4cccc(C(F)(F)F)c4)cc32)nc1 [Example 287]", "human GluN1/GluN2B NMDA receptors (Homo sapiens, UniProt Q13224)", "=", 5.49],
  ["FC(F)(F)c1cccc(-c2cnc3cnn(Cc4ncon4)c3c2)c1 [Example 20]", "human GluN1/GluN2B NMDA receptors (Homo sapiens, UniProt Q13224)", "=", 6.12],
  ["FC(F)(F)c1ccc(Cn2ncc3ncc(-c4cccc(C(F)(F)F)c4)cc32)cc1 [Example 25, hydrochloride salt]", "human GluN1/GluN2B NMDA receptors (Homo sapiens, UniProt Q13224)", "<", 5.00],
  ["Fc1cncc(Cn2ncc3ncc(-c4ccc(F)c(C(F)F)c4)cc32)c1 [Example 202]", "human GluN1/GluN2B NMDA receptors (Homo sapiens, UniProt Q13224)", "=", 7.85],
  ["Cc1cc(-c2cnc3cnn(Cc4cnccc4C)c3c2)ccc1F [Example 181, trifluoroacetate salt]", "human GluN1/GluN2B NMDA receptors (Homo sapiens, UniProt Q13224)", "=", 6.95],
  ["N#Cc1cncc(Cn2ncc3ncc(-c4ccc(F)c(C(F)F)c4)cc32)c1 [Example 203]", "human GluN1/GluN2B NMDA receptors (Homo sapiens, UniProt Q13224)", "=", 7.51],
  ["CC(F)(F)c1cc(-c2cnc3cnn(Cc4cncc(F)c4)c3c2)ccc1F [Example 218]", "human GluN1/GluN2B NMDA receptors (Homo sapiens, UniProt Q13224)", "=", 6.97],
  ["COc1cncc(Cn2ncc3ncc(-c4ccc(Cl)c(C(F)F)c4)cc32)c1 [Example 232]", "human GluN1/GluN2B NMDA receptors (Homo sapiens, UniProt Q13224)", "=", 7.40],
  ["Fc1ccc(-c2cnc3cnn(Cc4cncc(Cl)c4)c3c2)cc1C(F)F [Example 208]", "human GluN1/GluN2B NMDA receptors (Homo sapiens, UniProt Q13224)", "=", 7.59],
  ["Cc1cc(Cn2ncc3ncc(-c4cccc(C(F)(F)F)c4)cc32)ns1 [Example 64]", "human GluN1/GluN2B NMDA receptors (Homo sapiens, UniProt Q13224)", "=", 5.65],
  ["Cc1nnc(Cn2nc(F)c3ncc(-c4ccc(Cl)c(OC(F)F)c4)cc32)o1 [Example 117]", "human GluN1/GluN2B NMDA receptors (Homo sapiens, UniProt Q13224)", "=", 6.18],
  ["CCc1nnc(Cn2ncc3ncc(-c4ccc(F)c(C(F)F)c4)cc32)s1 [Example 125]", "human GluN1/GluN2B NMDA receptors (Homo sapiens, UniProt Q13224)", "=", 6.86],
  ["Fc1ccc(-c2cnc3cnn(Cc4cn[nH]c4)c3c2)cc1C(F)F [Example 38]", "human GluN1/GluN2B NMDA receptors (Homo sapiens, UniProt Q13224)", "=", 6.65],
  ["Fc1ncccc1Cn1ncc2ncc(-c3cccc(C(F)(F)F)c3)cc21 [Example 170]", "human GluN1/GluN2B NMDA receptors (Homo sapiens, UniProt Q13224)", "=", 5.98],
  ["Cc1cccc(-c2cnc3cnn(Cc4cncc(F)c4)c3c2)c1 [Example 146]", "human GluN1/GluN2B NMDA receptors (Homo sapiens, UniProt Q13224)", "=", 8.05],
  ["N#Cc1ccc(Cn2ncc3ncc(-c4ccc(F)c(C(F)F)c4)cc32)s1 [Example 34]", "human GluN1/GluN2B NMDA receptors (Homo sapiens, UniProt Q13224)", "=", 6.45],
  ["Cc1csc(Cn2ncc3ncc(-c4ccc(F)c(C(F)F)c4)cc32)n1 [Example 66]", "human GluN1/GluN2B NMDA receptors (Homo sapiens, UniProt Q13224)", "=", 6.39],
  ["Cc1cc(Cn2ncc3ncc(-c4cccc(C(C)(F)F)c4)cc32)no1 [Example 45]", "human GluN1/GluN2B NMDA receptors (Homo sapiens, UniProt Q13224)", "=", 7.36],
  ["N#Cc1cncc(Cn2ncc3ncc(-c4ccc(Cl)c(OC(F)F)c4)cc32)c1 [Example 241]", "human GluN1/GluN2B NMDA receptors (Homo sapiens, UniProt Q13224)", "=", 6.82],
  ["Cc1ncc(Cn2ncc3ncc(-c4ccc(F)c(OC(F)F)c4)cc32)o1 [Example 60]", "human GluN1/GluN2B NMDA receptors (Homo sapiens, UniProt Q13224)", "=", 6.25],
  ["FC(F)(F)c1cccc(-c2cnc3cnn(Cc4ccncc4)c3c2)c1 [Example 164, hydrochloride salt]", "human GluN1/GluN2B NMDA receptors (Homo sapiens, UniProt Q13224)", "=", 6.10],
  ["FC(F)(F)c1cccc(-c2cnc3cnn(Cc4cncnc4)c3c2)c1 [Example 276]", "human GluN1/GluN2B NMDA receptors (Homo sapiens, UniProt Q13224)", "=", 6.84],
  ["Cc1cncc(Cn2ncc3ncc(-c4cccc(C(C)(F)F)c4)cc32)c1 [Example 160]", "human GluN1/GluN2B NMDA receptors (Homo sapiens, UniProt Q13224)", "=", 6.95],
  ["FC(F)(F)c1cccc(-c2cnc3cnn(Cc4ncno4)c3c2)c1 [Example 87]", "human GluN1/GluN2B NMDA receptors (Homo sapiens, UniProt Q13224)", "=", 6.42],
  ["Cc1cnc(Cn2ncc3ncc(-c4ccc(F)c(C)c4)cc32)o1 [Example 49]", "human GluN1/GluN2B NMDA receptors (Homo sapiens, UniProt Q13224)", "=", 7.28],
  ["Cc1nnc(Cn2ncc3ncc(-c4ccc(F)c(C(F)F)c4)cc32)s1 [Example 122]", "human GluN1/GluN2B NMDA receptors (Homo sapiens, UniProt Q13224)", "=", 7.74]
]}
